Just for reference, patent US7419657B2 is where these values come from.

- Tested on: anti-Chlamydia abzymes
- Format: biochemical, human
- condition_description: 10 μM of each Me2+-binding agent
endpoint: Result (inhibition of anti-Chlamydia abzymes)

{"molecule": "O=C(O)c1ccccn1 [Picolinic acid]", "result": "Positive"}
{"molecule": "CC(=O)Oc1ccccc1C(=O)O [Aspirin, acetylsalicylic acid]", "result": "Positive"}
{"molecule": "CC(C)(S)[C@@H](N)C(=O)O [Penicillamine]", "result": "Positive"}

----------
- System: anti-Chlamydia abzymes
- Format: biochemical, human
- condition_description: 10 μM of each Me2+-binding agent; control 24.3
Catalogue of Lipid oxidising activity of anti-Chlamydia abzymes readings, one per entry.
endpoint: Lipid oxidising activity of anti-Chlamydia abzymes

{"sample_smiles": "O=C(O)CN(CCN(CC(=O)O)CC(=O)O)CCN(CC(=O)O)CC(=O)O", "target_desc": "anti-Chlamydia abzymes", "result": "45.2 μM MDA/ml"}
{"sample_smiles": "CC(C)(S)[C@@H](N)C(=O)O", "target_desc": "anti-Chlamydia abzymes", "result": "0 μM MDA/ml"}
{"sample_smiles": "O=C(O)c1ccccn1", "target_desc": "anti-Chlamydia abzymes", "result": "0 μM MDA/ml"}
{"sample_smiles": "CC(=O)Oc1ccccc1C(=O)O", "target_desc": "anti-Chlamydia abzymes", "result": "6.2 μM MDA/ml"}
